B1: MCOLN1 (parent)
chain: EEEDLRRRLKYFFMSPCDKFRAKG

Variants of: B1
Assay info: protein stability index of a GFP-peptide fusion (GPS, HEK-293T) (PSI 1-6); higher = more stable;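 also: lentivirally expressed fusions sorted by FACS into six bins by GFP to DsRed ratio, PSI derived from sequencing read proportions per bin multiplied by bin number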
Measurement conditions: c terminus: a fixed tail appended
Returns one of T or F; T when protein stability index is >= 3.

Solved cases (10 shown):
sequence_string=EEEDLRRRLKYFFMSPCRKFRAKG assigned_label=F
sequence_string=EEEDLRRRLKYFFMSPCDAFRAKG assigned_label=F
sequence_string=EEEDLSRRLKYFFMSPCDKFRAKG assigned_label=T
sequence_string=EEEDHRRRLKYFFMSPCDKFRAKG assigned_label=T
sequence_string=FEEDLRRRLKYFFMSPCDKFRAKG assigned_label=F
sequence_string=EEENLRRRLKYFFMSPCDKFRAKG assigned_label=F
sequence_string=EPEDLRRRLKYFFMSPCDKFRAKG assigned_label=F
sequence_string=EEEDLRRRLKYFFMSPCDKFRAMG assigned_label=F
sequence_string=LEEDLRRRLKYFFMSPCDKFRAKG assigned_label=F
sequence_string=EEEDLRRRHKYFFMSPCDKFRAKG assigned_label=T

Quick check, protein stability index >= 3? EEADLRRRLKYFFMSPCDKFRAKG
F

Please do the same for EENDLRRRLKYFFMSPCDKFRAKG as well.
F

Request: EEEDLRRRLKYFFMSPCDKFRWKG
F

Item: EEEDLRRKLKYFFMSPCDKFRAKG
F

Now give it for EEEDLRRRLKYFFMSPKDKFRAKG too.
F

Proceed to EEEDLRRRLKYFFMSPCDKFIAKG
F

What do we get for EMEDLRRRLKYFFMSPCDKFRAKG ?
F

Lookup EELDLRRRLKYFFMSPCDKFRAKG
F

# repeat for EEEDLRRRLKYFFMSPCHKFRAKG
F

Try the variant EETDLRRRLKYFFMSPCDKFRAKG
F

Same question, EEEHLRRRLKYFFMSPCDKFRAKG this time
F

Also check EEEDLRRDLKYFFMSPCDKFRAKG
T

And the next one, EEEDLRRRLKYFFMSPCLKFRAKG ?
F

Lookup EEEDLRMRLKYFFMSPCDKFRAKG
F

Moving on to EEEDLRRRLKYFFMWPCDKFRAKG
F

How about this variant: EEEDLRRRLKYFFMSPCDKFRKKG
F

And then EEEDLRRRLKYFFMEPCDKFRAKG , what is it?
T

Next entry: EEEDLRRRLKYFFMSPCDKFYAKG
F

# iterate: EEEDLRRRLKYFFMSPCDKFRHKG
F
